assay: soluble on expression in E. coli; label from the status in PepcDB or PDB records
readout: soluble on expression in E. coli

Please look at this sequence and report its soluble on expression in E. coli: MEYIYASLLLHSAKKEISEDALKNVLTAAGISVDEVRLKAVVAALKEVNIDEVLKNAAAMPVAVAAQPQATQAQPAAEEKKEEKKEEEKKGPSEEEIASGLASLFGLEHHHHHH
not soluble

Please look at this sequence and report its soluble on expression in E. coli: RERLLSEAKATLQNYVAIAMTAIKPLYDAAAPGDEAARANAIKLLSAVSYGKDGYLFGYDSQVVRIFRSTSPDGLGKSFVDARDANGVYINR
not soluble

Please look at this sequence and report its soluble on expression in E. coli: KEVRLSKHFYEDKEIEEIKHKDLAETPFQQQVIDYLYRHIAAQKEKVVEQQLQIKNHEQTITEFVHDIKTPVTAMKLLIDQENDDQRKRALLFEWSRINEMLDKQLYLTRLETHHRDMYFDYISLKRMVIDEIQVTRHISQAKGIGFELDFKDEQKVYTDVKWCRMMIRQVLSNSLKYSDNSTINLSGYNIEGHVVLKIKDYGRGISKRDLPRIFDRGFTSTTDRNDTASSGMGLYLVQSVKEQLGIEVKVDSIVGKGTTFYFIFPQQNEIIERMSKVTRLSF
not soluble

====

assay: soluble on expression in E. coli; label from the status in PepcDB or PDB records
readout: soluble on expression in E. coli

Please look at this sequence and report its soluble on expression in E. coli: MAHHHHHHMQTHISRAVEEGRHTKEAAAYFESIMNDKPEFRLFMREAQRLIGDQDPRGLTRYQQTHYSEKLSRYMSGVASERLMRAHTEDENTRRHTHDGSPTGENYWFEAGQILASPTVPSFVKDEVLREMRGGRKEDSPAFEEPKAVAEMEADDEGFAEHLRRQRKRLLSPDDHLN
soluble

Please look at this sequence and report its soluble on expression in E. coli: MSLYKTADGREIFIVDAHTHFWDGSPENQRNIHGKQFVDCFYAYHSALSPPEEKWEKSRFEKYSEDDIYRDLFVDGPDDMAIIQTTVLGDFYKTGFGCIERSTRMAARNPGRFIVNGAFDPRDGEKALEYIHYMKETHDITGVKLYTAEWHGDSRGWKLTDPAAYKCFELCDKLGIRNMHVHKGPTIIPLSKDSFSVGDVDDAATDFQGLNWIVEHCGLPRLDDFCWIAVQETNVYGGLAVALPFIHTRPRYFAEVIAELLFWLGPDKILFGSDYAIWTPKWLVDRFWNFQIPEDIAAERGVQLTDEIKEKILGLNAARLYGIDVDAKRRDFADHPVLIAAEGHHHHHH
soluble

====

test: soluble on expression in E. coli; label from the status in PepcDB or PDB records
readout: soluble on expression in E. coli

Please look at this sequence and report its soluble on expression in E. coli: NTKPENDLERAKRKNERAKARCVGITFETRPDYAREEHIREMLRFGGTKVELGVQSLYDDVLERIKRGHGVKEVAEATRLLRDSAFKVGYHIMPGLPGSSFERDLRMFRELFENDSFKPDYLKIYPTLVVEGTELYEMWKRGEYEPYTTEEVVELIVMAKRRFPE
not soluble

Please look at this sequence and report its soluble on expression in E. coli: MASVTLKNVCKAYGDVLISKNVDLEIQEGEFVVFVGPSGCGKSTLLRCIAGLEDITSGDLYIGEQRMNDVEPSKRGVGMVFQSYALYPHLNLYDNMSFGLKLSKADKSEIKKRVDHAAEILQLSHLLDRQPKALSGGQRQRVAIGRTLVSQPNVFLLDEPLSNLDAALRVQMRSEITKLQRKLGCTMIYVTHDQVEAMTMADKIVVLDAGFVSQVGKPLELYHYPQNRFVAGFIGSPKMNFMSVFIEGVEKDRVQVQLSNGTTFWIPVDGTTVTRGERMSLGIRPEHLVEAEHGDAKIEGKVMIVEKLGNETQVYMNLKGSDSDVIYRQPDTLDVETGDTLTIGIPAHRCHLFHSDGRACRRLHKEKGVDLPA
not soluble

Please look at this sequence and report its soluble on expression in E. coli: MGSDKIHHHHHHMYKINIIRSDSVYKNILKAPINDRDSIFTKEILVPFKKKFEVQHMPIYNDDKQTMSAIQFLDAFQISPKDLRMSDQMSIQYLNNDFWSNCEKYLKVAIDQFSNYSISSQVSNYHFTVLLGDSQKPLMYLNKNRGGDGGIPGYIMIYLVPSTSTINSMKSLIAHEVNHNMRYQYIDWDGGSLIELIIAEGLAENYVESLYGKAHIGPWVTNTNWSRDNVKIKNTIYNHLHLKHIFESMPYLYGDDINKLQGRPIVGLSHAAGYACGYHLVKYFLQKTNIPIEVATTLPAQKIINEVTEFWHTHTL
not soluble

====

assay: soluble on expression in E. coli; label from the status in PepcDB or PDB records
readout: soluble on expression in E. coli

Reference set, count: 5
Please look at this sequence and report its soluble on expression in E. coli: MAHHHHHHMHTFYTIRYPPPNSQKGGEDSQPIRVTNKAMESLLFCIVHSIEFQSPLQPSRPQLGSSIGSSGKDSITDDEAYVRPVENSSMLLGNVTYVSRSKHKPSVLASLHTAVEAARAIQIPEKSSQVPFELRVRLLRRHRGWLWHDSRPLVEWVFRMAKTREEFSFSTTHGDASERPRPRTSPRATNAHANVVRATGGGGVHSRSREDGLVCSNDPEQIRQVLQFILKHSYDAIDLNTYADFRSGELIFDVSVQEV
not soluble

Please look at this sequence and report its soluble on expression in E. coli: GMSEALSDSGLPPVQRVVTGHDAHGRAVFKSEDVTPTRMIPSGDASFLLVWTTATVPADNNDETDGRQREAGLTLDGGSVIRVVDMLPGKESPMHRTNSIDYGIVLEGEIELELDDGAKRTVRQGGIIVQRGTNHLWRNTTDKPCRIAFILIEAPAYLHNGQPLPEDKPDHK
soluble

Please look at this sequence and report its soluble on expression in E. coli: MSLKSYRPIELAKMFNLHSNTIRFYESIGYISKASRKPNGYREFTDKHILQLTICRHILGYRYTNRHIRDTGKLIIICSAESKLIEGKQYAQDYIKIIQNEIEIAEKTAQLLHKWAELKRDTDNSDSIEKFYTRNEVACLLGVTSEAVRNWERNDLIKSDKRGYRNAVLFNNIDLDRIRIIYMLRQTGYSMSAIHRCLMVYDKGQTELVVAALNKTDERELLSVGDCWLSELKKLESAAEEIPLIFDKLKESEGHHHHHH
soluble

Please look at this sequence and report its soluble on expression in E. coli: MNVSVERYQRRKYVSQENSPMLYYVRQKSGTVRVMDVEKLADAIEANSSLTAGDVKHAIEAFVEQLRLSLTQGDKVKIDGLGTFHITLCSEGTEKEKDCTVRSIRKVNVRFVADKALHLVNASHTSTRSENNVEFVLASKGDTEGGNAGGGNTGGGGNSGGGGNSGGDEEAPDPTV
not soluble

Please look at this sequence and report its soluble on expression in E. coli: MSQLPTDFASLIKRFQFVSVLDSNPQTKVMSLLGTIDNKDAIITAEKTHFLFDETVRRPSQDGRSTPVLYNCENEYSCINGIQELKEITSNDIYYWGLSVIKQDMESNPTAKLNLIWPATPIHIKKYEQQNFHLVRETPEMYKRIVQPYIEEMCNNGRLKWVNNILYEGAESERVVYKDFSEENKDDGFLILPDMKWDGMNLDSLYLVAIVYRTDIKTIRDLRYSDRQWLINLNNKIRSIVPGCYNYAVHPDELRILVHYQPSYYHFHIHIVNIKHPGLGNSIAAGKAILLEDIIEMLNYLGPEGYMNKTITYAIGENHDLWKRGLEEELTKQLERDGIPKIPKIVNGFK
soluble

Now for a further sequence.
Please look at this sequence and report its soluble on expression in E. coli: AETTVKPTKLAVIGAGAVGSTLAFAAAQRGIAREIVLEDIAKERVEAEVLDMQHGSSFYPTVSIDGSDDPEICRDADMVVITAGPRQKPGQSRLELVGATVNILKAIMPNLVKVAPNAIYMLITNPVDIATHVAQKLTGLPENQIFGSGTNLDSARLRFLIAQQTGVNVKNVHAYIAGEHGDSEVPLWESATIGGVPMSDWTPLPGHDPLDADKREEIHQEVKNAAYKIINGKGATNYAIGMSGVDIIEAVLHDTNRILPVSSMLKDFHGISDICMSVPTLLNRQGVNNTINTPVSDKELAALKRSAETLKETAAQFGF
soluble

====

assay: soluble on expression in E. coli; label from the status in PepcDB or PDB records
readout: soluble on expression in E. coli

Please look at this sequence and report its soluble on expression in E. coli: MEQAMLKTLALLVLGMHYWCATGFPVYDYDPSSLQEALSASVAKVNSQSLSPYLFRATRSSLKRVNVLDEDTLVMNLEFSVQETTCLRDSGDPSTCAFQRGYSVPTAACRSTVQMSKGQVKDVWAHCRWASSSESNSSEEMMFGDMARSHRRRNDYLLGFLSDESRSEQFRDRSLEIMRRGQPPAHRRFLNLHRRARVNSGFE
soluble

Please look at this sequence and report its soluble on expression in E. coli: MAHHHHHHMLRQSLLSLAKVYGAVPPLGAAQGHRLLHGKREREGSLFAVANDVKRDERLLRQQLNALLEEERMPMQARLQRSEAVSSHEAVPQTPLVDLPGVERRRDLPADPITRLFFQHKGDHALYYGTYDKPSVQDDDRVQIEKRVPRRREENLYTPIYDFCHRIREATEQRKRFVVVPSTIETRGCARVMHDHGLVAGFRDFHNDRAFAVELKYFQGDSTINVIEPCSYDGRTEFEWSPKMMRRLLNTHGIHNRLVVYICRTADNRIIDHIHAVKENIGGRGLMMVH
not soluble

Please look at this sequence and report its soluble on expression in E. coli: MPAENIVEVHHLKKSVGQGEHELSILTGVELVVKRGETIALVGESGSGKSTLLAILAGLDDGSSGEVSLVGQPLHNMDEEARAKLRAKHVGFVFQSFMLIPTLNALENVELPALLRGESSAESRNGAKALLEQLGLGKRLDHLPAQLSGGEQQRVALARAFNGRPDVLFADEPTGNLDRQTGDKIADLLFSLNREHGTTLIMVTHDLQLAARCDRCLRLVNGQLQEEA
soluble

Please look at this sequence and report its soluble on expression in E. coli: YANRESLIKRYTLKVLEQIAWLPEAQSLDEAKVQEALEDASQTIDSYLGGRYVLPLKTVPAVLERHCCYIARYFLEKNRATDQARQDYEDTIRFLEKVASGAISLGLSDDDETVESENGAMMESAGSVWGRNT
not soluble
